// FoldChange between the prey Avg spectra of the bait and control purifications lookup, one value per entry
# targetDesc: T1, nSR100 (Mus musculus, UniProt Q8BKA3)
# T1 construct: host or cells: mouse N2A cells
# T1 sequence (Q8BKA3 1-608): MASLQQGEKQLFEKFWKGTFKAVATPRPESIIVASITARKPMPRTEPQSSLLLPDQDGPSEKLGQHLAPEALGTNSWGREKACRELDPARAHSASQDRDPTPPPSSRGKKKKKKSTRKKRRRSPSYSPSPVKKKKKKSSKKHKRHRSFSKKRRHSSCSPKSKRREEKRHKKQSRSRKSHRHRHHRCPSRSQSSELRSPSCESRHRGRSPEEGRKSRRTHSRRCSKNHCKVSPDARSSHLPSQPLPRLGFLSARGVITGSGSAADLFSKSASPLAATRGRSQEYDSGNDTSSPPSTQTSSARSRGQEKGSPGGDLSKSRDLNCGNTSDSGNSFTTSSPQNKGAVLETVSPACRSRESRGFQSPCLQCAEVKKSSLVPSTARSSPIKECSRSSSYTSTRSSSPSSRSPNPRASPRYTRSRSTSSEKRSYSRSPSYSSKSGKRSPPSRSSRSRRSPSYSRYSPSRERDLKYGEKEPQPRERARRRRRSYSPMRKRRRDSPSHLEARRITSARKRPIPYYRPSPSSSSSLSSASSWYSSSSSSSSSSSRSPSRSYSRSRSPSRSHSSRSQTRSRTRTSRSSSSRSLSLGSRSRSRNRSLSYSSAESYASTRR
# assayRemarks: AP-MS nSR100 interaction partners from mouse N2A cells (Table 5)
# Format: binding
# conditionDescription: bait Srrm4, 0.1 added to prevent division by 0
reportedEndpoint: FoldChange between the prey Avg spectra of the bait and control purifications

molecule: Snrpb2 (protein, UniProt Q9CQI7 1-225, looked up) U2 small nuclear …: MDIRPNHTIYINNMNDKIKKEELKRSLYALFSQFGHVVDIVALKTMKMRGQAFVIFKELGSSTNALRQLQGFPFYGKPMRIQYAKTDSDIISKMRGTFADKEKKKEKKKAKTMEQAAAAANKKPGQGTPNAANTQGTAAPNPQVPDYPPNYILFLNNLPEETNEMMLSMLFNQFPGFKEVRLVPGRHDIAFVEFENDGQAGAARDALQGFKITPSHAMKITYAKK
numericResult: 55

molecule: Ywhaq (protein, UniProt P68254 1-245, looked up) 14-3-3 protein theta: MEKTELIQKAKLAEQAERYDDMATCMKAVTEQGAELSNEERNLLSVAYKNVVGGRRSAWRVISSIEQKTDTSDKKLQLIKDYREKVESELRSICTTVLELLDKYLIANATNPESKVFYLKMKGDYFRYLAEVACGDDRKQTIENSQGAYQEAFDISKKEMQPTHPIRLGLALNFSVFYYEILNNPELACTLAKTAFDEAIAELDTLNEDSYKDSTLIMQLLRDNLTLWTSDSAGEECDAAEGAEN
numericResult: 180

molecule: P00761 (protein, UniProt P00761 1-231, looked up, full-length) FPTDDDDKIVGGYTCAANSIPYQVSLNSGSHFCGGSLINSQWVVSAAHCYKSRIQVRLGEHNIDVLEGNEQFINAAKIITHPNFNGNTLDNDIMLIKLSSPATLNSRVATVSLPRSCAAAGTECLISGWGNTKSSGSSYPSLLQCLKAPVLSDSSCKSSYPGQITGNMICVGFLEGGKDSCQGDSGGPVVCNGQLQGIVSWGYGCAQKNKPGVYTKVCNYVNWIQQTIAAN
numericResult: 150
